src = PubChem BioAssay

Assay: HepG2 liver cancer cell viability effects, profiling panel, resazurin fluorescence, 24 h, PK04 Diversity Set (AID 1172); note: test concentration not given here
Settings: higher = more signal
measured_property: z-score

[[record]]
compound = "COc1ccc([C@H]2C[C@H]3C(Br)=C[C@]2(OC)C(=O)[C@]32CO2)cc1"
measured_property = "z-score"
reported = 0.531

[[record]]
compound = "O=C1C2C=CC(C(O)c3ccccc3)N(n3cnnc3)C2C(=O)N1Cc1ccccc1 (stereo not drawn)"
measured_property = "z-score"
reported = -0.362

[[record]]
compound = "NC(=O)[C@H]1[C@@H]2C(=O)O[C@@H](c3ccccc3)[C@@H](c3ccccc3)N2[C@@H](c2ccc(O)cc2)[C@]12C(=O)Nc1ccc(C#CCCO)cc12"
measured_property = "z-score"
reported = -0.744

[[record]]
compound = "CCC(=O)[C@]12O[C@@]3([C@@H]4C(=O)OCC[C@@H]41)N(CC)C(C)=C(C(=O)OC)[C@@H](c1ccccc1)N3C2=O"
measured_property = "z-score"
reported = 0.121

[[record]]
compound = "COC(=O)C[C@H]1O[C@]2(C(=O)N(C)c3ccccc32)[C@@H](C)[C@@H]1[Si](C)(C)c1ccc(OC)cc1"
measured_property = "z-score"
reported = -0.0652

[[record]]
compound = "C=C(COC)/C(=C/C[C@H](OC(C)=O)c1ccc(OCCO)cc1)c1cnc2ccccc2c1"
measured_property = "z-score"
reported = 0.807

[[record]]
compound = "CCOC(=O)C[C@H]1[C@H](OC(=O)Cc2ccc3c(c2)OCO3)[C@@H](NC(=O)CC(C)C)c2cc(OCCCO)ccc2N1C(=O)c1ccccc1"
measured_property = "z-score"
reported = 1.05

[[record]]
compound = "CO[C@H]1O[C@H](CO)[C@@H](OC(=O)CCc2ccccc2)[C@@H]2OC(=O)[C@H](Cc3cccc(Br)c3)C/C=C/C[C@@H](Cc3cccc(Br)c3)C(=O)O[C@@H]12"
measured_property = "z-score"
reported = 1.13

[[record]]
compound = "[N-]=[N+]=NCc1ccccc1C[C@@]1(C(=O)O)N=C(c2ccc(OCCCO)cc2)O[C@@H]1c1ccccc1N=[N+]=[N-]"
measured_property = "z-score"
reported = 0.0549

[[record]]
compound = "CC(=O)Nc1ccc([C@H]2[C@H](C)CC[C@H]3C(=O)N4[C@@H](CC[C@@H](C)[C@@H]4c4ccc(NC(C)=O)cc4)C(=O)N32)cc1"
measured_property = "z-score"
reported = 1.23

[[record]]
compound = "C=CC[C@]1(C(=O)NCC(O)CO)N=C(c2ccc(OCCCO)cc2)O[C@H]1c1ccccc1 (stereo partly drawn)"
measured_property = "z-score"
reported = 0.766

[[record]]
compound = "C[N+](C)(C)CCCC[C@@H]1NC(=O)[C@H]2C[C@@H](C(=O)NCc3ccc(F)cc3)[C@@H](c3cccc(OCCO)c3)N2C1=O"
measured_property = "z-score"
reported = 0.523

[[record]]
compound = "CCN1C(C)=C(C(=O)OC)[C@@H](c2ccccc2)N2C(=O)[C@](O)(C(=O)OC)[C@@H](c3ccccc3)C(C(=O)c3ccccc3)=C12"
measured_property = "z-score"
reported = 2.22

